pKi: −log10 of the molar value.
Below are pKi measurements against Tyrosine-protein kinase JAK3 (Homo sapiens) drawn from the literature.

INSERT INTO measurements (compound, test_system, reported_result) VALUES
  ('c1ccc2c(c1)NCc1c[nH]c3nccc-2c13', 'Tyrosine-protein kinase JAK3 (Homo sapiens)', '5.60 to 6.60'),
  ('CCN(CCC#N)C(=O)c1ccc(-c2cnc3c(-c4ccccn4)c(N)nn3c2)nc1', 'Tyrosine-protein kinase JAK3 (Homo sapiens)', '5.30 to 6.30'),
  ('Nc1nn2cc(C#CCO)cnc2c1-c1ccccn1', 'Tyrosine-protein kinase JAK3 (Homo sapiens)', '5.30 to 6.30'),
  ('COC(C)C(=O)Nc1nc(-c2ncnc3[nH]ccc23)cs1 (stereo not drawn)', 'Tyrosine-protein kinase JAK3 (Homo sapiens)', '6.30 to 7.00');

With those in mind, consider the next compound.
Assay Tyrosine-protein kinase JAK3 (Homo sapiens), sample "COCCN(C)C(=O)c1ccc(-c2cnc3c(-c4ccccn4)c(N)nn3c2)nc1" , pKi read: < 5.30
